assay: soluble fraction after stress (log2 fold change); higher = more stays soluble; pooled small domains, quantitative proteomics; settings: stress: 50 degC
quantity: soluble fraction (log2)

| sequenceText | result |
| --- | --- |
| HMGEPTLTIRVVSYNPQSGEMVVVARDPLSGRYALATLNVRTGAGQMIGPQGELLPIENFALGS | -0.985 |
| HMSTKRQKELLEYVDRFITEHGYGPSYREIMNAIGYKSVSTVAIHIDGLIAKGYLRKRDNSARSLEVV | -0.716 |
| HMKISDMIETNLKFLRGKHSISQAELAESLGIPRTTLSAYERGFVEPNIELMLKMAKYFNVSLDDLIAYN | -1.88 |
| HMNGVSNETLIQKSALYEELNQPDLALKMINTALKKDSVNIEILHRLVTLLMSQEKNEEAILYNQKIIDH | 0.022 |
| HMLETIDIFKVTGGEPFLSKDFLEILDLAIEKDLAKNITLMITTNASKFVKKILDKFIHFKRVEFTVS | 0.0202 |
| HMENISVESKMKLLLKSLKTRDFISLPELVLKGESKLAISVILVAALELNRKGYIEVVQAEQFGEIYFKNT | -0.191 |
| HMSENLESEFFGIVVITQTLLQKELRDKPMTVELIRKTVEDVMSKHYSDSSVDKAKVEEELIRRFSTW | -0.164 |
| HMTKQIILVHVAGKVKKPDVYPLLQGSRVADAIKAAGGAKKGVELNDINLARVLIDGEQVFVGYVPE | -1.58 |
| HMGVMTGAEFVGNTVASVERNLIIDTLKHTMGNRTTAANILGISIRTLRNKLKQYQNEGFDIPE | -0.703 |
| HMNSVSIAPEMLNWVIAHIQMNSLPKQIVEHLTAWISGQKEPTFNQIEKVSRATGIPLGYFFLEQPPKE | -2.03 |

Give the measured soluble fraction (log2) of HMSSDLLGVRVRRARARAGLTRRRLSLLSGVSERFLAQLESGQGNISIVLIRRVAAALGAELVELIGS .
-0.74

Same question, HMSQSIGQEKALSIALADAGVQKENALGLEVKGEYDDGQLLYEVEFRAGGVEYEYEVRASDGRIVKAERD this time
0.13

Same question, HMSDGHLIKVLEVLDGGEAFLGRTANGGTARFSLGQLADIRRGSVVFVSEDRWEVVPDSAWPEI this time
-0.528

Same question, HMNNLKTKELSKIGYTNDKARSLVISIIPKHFKYHSKSEIIELLTNIKNKPEDYVSDEILGKIAETFMEKI this time
-0.215

Same question, HMALIGSNLRHLRNERKLSQQELADLIRVGRTTIANIEANLANPGHKTLLEIVKVFDITIDELLHTDLTK this time
-0.886

Same question, HMSEYLDIHMAMEKLNRKEQLFVHLRFYEGLTQSEIAQRLFTSQVQISRLEKSVLEKMRQILSK this time
-1.34

Same question, HMGSGVNVTVNGKRMNLPLKDDHIIFVDIFNYIDFDLSKPKGSIVLKLNGRDAGYTDPIKDGDVIDIYWQ this time
0.33

Same question, HMKETLSDTVSRKLEDMITTQMKAGNRLPTEMVLAEMYSVGRSTIRESLKALSSKGLIVRKKDGTFVSDRV this time
-0.109

Same question, HMYEPPTEDEKRVLSLLATRESIVRSDVDRLLGVSQSTANRILKQMIEKYLISQEGTGKNTKYIK this time
-0.0391

Same question, HMSKTQYTFREVGSQFELHAPSTNHKIMVDANHPKYGWLSSQEAGRVINVYESGKMTSSQDYYGLYKQS this time
-0.0727

Same question, HMKIHNSIREITDFDRKQNSNIPSDAKYRIVFYTPQGNKTIIPEELQGLQYYRSKELAEIALNKKLNSN this time
-0.132
